experimental target: T1, murine IL-11 (mouse, UniProt P47873 22-199)
T1 sequence: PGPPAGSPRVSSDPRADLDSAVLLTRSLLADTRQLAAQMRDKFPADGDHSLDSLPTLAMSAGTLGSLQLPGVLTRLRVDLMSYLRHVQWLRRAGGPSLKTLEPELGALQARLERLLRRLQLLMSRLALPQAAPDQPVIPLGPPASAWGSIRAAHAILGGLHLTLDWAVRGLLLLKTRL
assay overview: cell-based or functional assay
measurement label: IC50, RGA 1 (nM)
Quick reminder: number only, in nM, skip the unit.

TPP-31297 (antibody, IgG4, V domains shown) VH: EVQLLESGGGLVQPGGSLRLSCAASGFTFSHYDMNWLRQAPGKGLEWVGVISYDGSNKFYADFVKGRFTISRDNSKNTLYLQMNSLRAEDTAVYYCARTPGSHFDYWGQGTLVTVSS VL: QSVLTQPPSASGTPGQRVTISCSGSSSNIGNNAVNWYQQLPGTAPKLLIYYDDLLPSGVPDRFSGSKSGTSASLAISGLRSEDEADYYCSAWDDSLQGVVFGGGTKLTVL | 37

Now consider a different binder.
Q. Fill in: IC50, RGA 1 of TPP-31300 (antibody, IgG4, V domains shown) VH: EVQLLESGGGLVQPGGSLRLSCAASGFTFSHYDMNWLRQAPGKGLEWVGVISYEGSNKFYADFVKGRFTISRDNSKNTLYLQMNSLRAEDTAVYYCARTPGSHFDYWGQGTLVTVSS VL: QSVLTQPPSASGTPGQRVTISCSGSSSNIGNNAVNWYQQLPGTAPKLLIYYDDLLPSGVPDRFSGSKSGTSASLAISGLRSEDEADYYCSAWDDSLNGVVFGGGTKLTVL is ___
A. 3.42

Recorded values, source patent US20240317847A1.
